Reported pKi by item:
# targetOrSystem: human thyroid receptor (Homo sapiens)
# Sequence (P10828 1-461): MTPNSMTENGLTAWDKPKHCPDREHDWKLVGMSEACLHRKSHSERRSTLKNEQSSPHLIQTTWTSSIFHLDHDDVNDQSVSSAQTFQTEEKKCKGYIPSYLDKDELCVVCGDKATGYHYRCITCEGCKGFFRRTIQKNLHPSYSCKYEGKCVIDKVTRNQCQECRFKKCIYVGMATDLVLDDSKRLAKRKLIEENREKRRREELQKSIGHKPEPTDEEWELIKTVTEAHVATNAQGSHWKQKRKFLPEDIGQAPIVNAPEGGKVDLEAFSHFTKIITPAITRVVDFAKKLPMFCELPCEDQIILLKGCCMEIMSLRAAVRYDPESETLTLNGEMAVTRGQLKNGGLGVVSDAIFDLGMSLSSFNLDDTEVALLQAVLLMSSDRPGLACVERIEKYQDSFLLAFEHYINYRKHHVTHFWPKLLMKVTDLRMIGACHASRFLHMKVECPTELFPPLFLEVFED
# measurementDescription: Thyroid hormone receptor binding affinity
Note on units: pKi is unitless, being -log10 of a concentration expressed in mol/L.

compound	valueMeasured
N[C@@H](Cc1ccc(Oc2ccc(O)cc2)c(I)c1)C(=O)O [L-T-1, 3-idodo-L-Thronine]	4.70

I am curious: what pKi value has been reported for O=C(O)c1cc(I)c(Oc2ccc(O)c(I)c2)c(I)c1 [compound number 2] ?
10.00

I am curious: what pKi value has been reported for Cc1cc(NC(=O)C(=O)O)cc(C)c1Oc1ccc(O)c(C(C)C)c1 [compound number 7] ?
10.00

I am curious: what pKi value has been reported for NC(Cc1cc(Br)c(Oc2ccc(O)c(Cc3ccc(=O)[nH]n3)c2)c(Br)c1)C(=O)O (stereo not shown) [compound number 5] ?
8.10
